The values you see were collected from patent US4399274A.

// reported % Remaining in Solution for each item listed
Assay: Partition of avermectins between aqueous acetone and Duolite ES-863 resin (HPLC of supernatant before and after equilibration)
Conditions: 37.5% acetone (vol); 4 ml supernatant, 1 g ES-863 resin, equilibrated for an hour

| COMPOUND | TEST READOUT | MEASUREMENT |
| --- | --- | --- |
| CCC(C)C1OC2(C=CC1C)CC1CC(CC=C(C)C(OC3CC(OC)C(OC4CC(OC)C(O)C(C)O4)C(C)O3)C(C)C=CC=C3COC4C(OC)C(C)=CC(C(=O)O1)C34O)O2 (stereo not shown) | % Remaining in Solution | 3.60% |
| CCC(C)C1OC2(CC3CC(CC=C(C)C(OC4CC(OC)C(OC5CC(OC)C(O)C(C)O5)C(C)O4)C(C)C=CC=C4COC5C(O)C(C)=CC(C(=O)O3)C45O)O2)CC(O)C1C (stereo not shown) | % Remaining in Solution | 3.21% |
| COC1CC(OC2C(C)OC(OC3C(C)=CCC4CC(CC5(C=CC(C)C(C(C)C)O5)O4)OC(=O)C4C=C(C)C(OC)C5OCC(=CC=CC3C)C45O)CC2OC)OC(C)C1O (stereo not shown) | % Remaining in Solution | 3.18% |
| COC1CC(OC2C(C)OC(OC3C(C)=CCC4CC(CC5(CC(O)C(C)C(C(C)C)O5)O4)OC(=O)C4C=C(C)C(OC)C5OCC(=CC=CC3C)C45O)CC2OC)OC(C)C1O (stereo not shown) | % Remaining in Solution | 2.70% |
| COC1CC(OC2C(C)OC(OC3C(C)=CCC4CC(CC5(C=CC(C)C(C(C)C)O5)O4)OC(=O)C4C=C(C)C(O)C5OCC(=CC=CC3C)C45O)CC2OC)OC(C)C1O (stereo not shown) | % Remaining in Solution | 2.59% |

Respond only with % Remaining in Solution recorded for CCC(C)C1OC2(CC3CC(CC=C(C)C(OC4CC(OC)C(OC5CC(OC)C(O)C(C)O5)C(C)O4)C(C)C=CC=C4COC5C(OC)C(C)=CC(C(=O)O3)C45O)O2)CC(O)C1C (stereo not shown)
4.19%

Respond only with % Remaining in Solution recorded for COC1CC(OC2C(C)OC(OC3C(C)=CCC4CC(CC5(CC(O)C(C)C(C(C)C)O5)O4)OC(=O)C4C=C(C)C(O)C5OCC(=CC=CC3C)C45O)CC2OC)OC(C)C1O (stereo not shown)
< 3%

----------
// reported % Remaining in Solution for each item listed
Experiment: Partition of avermectins between aqueous acetone and Duolite ES-863 resin (HPLC of supernatant before and after equilibration)
Conditions: 60.0% acetone (vol); 4 ml supernatant, 1 g ES-863 resin, equilibrated for an hour
All answers are understood in %, so give the number only.

Reference set (3 entries):
| MOLECULE | UNIT SPEC | % Remaining in Solution |
| --- | --- | --- |
| CCC(C)C1OC2(CC3CC(CC=C(C)C(OC4CC(OC)C(OC5CC(OC)C(O)C(C)O5)C(C)O4)C(C)C=CC=C4COC5C(OC)C(C)=CC(C(=O)O3)C45O)O2)CC(O)C1C (stereo not shown) | % | 2.72 |
| COC1CC(OC2C(C)OC(OC3C(C)=CCC4CC(CC5(C=CC(C)C(C(C)C)O5)O4)OC(=O)C4C=C(C)C(OC)C5OCC(=CC=CC3C)C45O)CC2OC)OC(C)C1O (stereo not shown) | % | 1.69 |
| COC1CC(OC2C(C)OC(OC3C(C)=CCC4CC(CC5(CC(O)C(C)C(C(C)C)O5)O4)OC(=O)C4C=C(C)C(O)C5OCC(=CC=CC3C)C45O)CC2OC)OC(C)C1O (stereo not shown) | % | 33.3 |

Respond only with % Remaining in Solution recorded for CCC(C)C1OC2(C=CC1C)CC1CC(CC=C(C)C(OC3CC(OC)C(OC4CC(OC)C(O)C(C)O4)C(C)O3)C(C)C=CC=C3COC4C(OC)C(C)=CC(C(=O)O1)C34O)O2 (stereo not shown)
2.10
